Listed below: viability at 25 µM values for each entry.
- Assay: Cytotoxicity against mouse BV-2 cells assessed as cell viability at 25 uM by MTT assay
- Type: toxicity, cell-based
- Study Conditions: read-out: Activity
API: value field is a number in %; no unit string.

(Q) What value of viability at 25 µM has been reported for the following compound? CNC(=N)NCCC[C@H](N)C(=O)O [TILARGININE]
(A) 104

(Q) What value of viability at 25 µM has been reported for the following compound? OC[C@H]1O[C@@H](O[C@H]2c3ccc(O)cc3O[C@@H](c3ccc(O)cc3)[C@@H]2O)[C@H](O)[C@@H](O)[C@@H]1O
(A) 98.9

(Q) What value of viability at 25 µM has been reported for the following compound? COc1cc([C@@H]2Oc3cc(CCCO)cc(O)c3O[C@H]2CO)ccc1O[C@@H]1O[C@H](CO)[C@@H](O)[C@H](O)[C@H]1O
(A) 95.9

(Q) What value of viability at 25 µM has been reported for the following compound? COc1cc([C@@H]2Oc3cc(CCCO)cc(O)c3O[C@H]2CO)ccc1O
(A) 92.4

###

- Assay: Cytotoxicity against rat C6 cells assessed as cell viability at 25 uM by MTT assay
- Format: toxicity, cell-based
- Study Conditions: read-out: Activity
Listed below: viability at 25 µM values for each entry.
API: value field is a number in %; no unit string.

In [3]: df
Out[3]:
                                   molecule  u  observed_result
0  COc1cc([C@@H]2Oc3cc(CCCO)cc(O)c3O[C@H]2CO)ccc1O[C@@H]1O[C@H](CO)[C@@H](O)[C@H](O)[C@H]1O  %             99.2
1  OC[C@H]1O[C@@H](O[C@H]2c3ccc(O)cc3O[C@@H](c3ccc(O)cc3)[C@@H]2O)[C@H](O)[C@@H](O)[C@@H]1O  %              102

The record that follows has no viability at 25 µM shown yet.
(Q) What value of viability at 25 µM has been reported for the following molecule? CCCCC/C=C/C(=O)CCc1ccc(O)c(OC)c1 [SHOGAOL]
(A) 116

Origin of measurements: ChEMBL document CHEMBL5120783
